testDescription: Phase 1 Study S-(1)-01 plasma pharmacokinetics (weekly x3, 28-day cycle)
Type: in vivo, human
experimentalConditions: human, plasma, iv, 85 mg/m2; 85 mg/m^2 i.v., first dose, 50:50 Cremophor EL-P/ethanol formulation; read-out: AUC0-24
propertyMeasured: AUC(0-t) (ng·h/mL)
Give your result in ng·h/mL as a bare value.

Prompt line: Tell me the measured AUC(0-t) of C=C[C@H]1O[C@H]2C[C@H]3OC[C@@]3(OC(C)=O)[C@H]3[C@H](OC(=O)c4ccccc4)[C@]4(C(C)(C)O)CC(OC(=O)[C@H](O)C(CC(C)C)NC(=O)OC(C)(C)C)C(C)=C4[C@H](OC(C)=O)[C@H](O1)[C@]23C (stereo partly drawn) [S-(1)] , please.
Response line: 5970
